Where do the numbers come from? From patent US20130323786A1.

# Assayed system: T1, LINGO-Fc (human, UniProt Q96FE5 40-538, limits assumed)
# T1 construct: not shown: Fc part
# T1 sequence: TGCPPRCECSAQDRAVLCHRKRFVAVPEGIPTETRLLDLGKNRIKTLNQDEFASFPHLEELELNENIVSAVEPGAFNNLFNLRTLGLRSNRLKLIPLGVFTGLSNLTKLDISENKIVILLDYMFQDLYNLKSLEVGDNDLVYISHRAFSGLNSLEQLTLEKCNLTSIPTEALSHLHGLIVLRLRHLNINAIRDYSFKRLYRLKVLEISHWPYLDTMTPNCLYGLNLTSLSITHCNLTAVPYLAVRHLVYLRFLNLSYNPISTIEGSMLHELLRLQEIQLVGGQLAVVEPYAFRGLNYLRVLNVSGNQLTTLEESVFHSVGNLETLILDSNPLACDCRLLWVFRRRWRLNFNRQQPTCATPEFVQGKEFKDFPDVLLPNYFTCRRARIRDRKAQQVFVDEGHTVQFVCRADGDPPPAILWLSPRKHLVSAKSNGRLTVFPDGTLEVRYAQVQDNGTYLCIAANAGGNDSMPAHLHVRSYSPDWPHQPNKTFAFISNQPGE
# Experiment: direct ELISA on LINGO-Fc; half-maximal concentration relative to Li33;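 note: direct binding ELISA on plates coated with LINGO-Fc, concentration giving half of saturating binding, expressed as a ratio to the same value for the comparator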
Property: ELISA Ratio (ratio)
API: value field is a number in ratio; no unit string.

| Binder | ELISA Ratio [ratio] |
| --- | --- |
| Li33 variant W50F (SEQ ID NO:148) (antibody, V domains shown, unchanged chain from WT Li33) VH: EVQLLESGGGLVQPGGSLRLSCAASGFTFSIYPMFWVRQAPGKGLEWVSFIGPSGGITKYADSVKGRFTISRDNSKNTLYLQMNSLRAEDTATYYCAREGHNDWYFDLWGRGTLVTVSS VL: DIQMTQSPGTLSLSPGERATLSCRASQSVSSYLAWYQQKPGQAPRLLIYDASNRATGIPARFSGSGSGTEFTLTISSLQSEDFAVYYCQQYDKWPLTFGGGTKVEIKR | 1.2 |

Ask | Tell me the measured ELISA Ratio of Li33 variant P53L (SEQ ID NO:151) (antibody, V domains shown, unchanged chain from WT Li33) VH: EVQLLESGGGLVQPGGSLRLSCAASGFTFSIYPMFWVRQAPGKGLEWVSWIGLSGGITKYADSVKGRFTISRDNSKNTLYLQMNSLRAEDTATYYCAREGHNDWYFDLWGRGTLVTVSS VL: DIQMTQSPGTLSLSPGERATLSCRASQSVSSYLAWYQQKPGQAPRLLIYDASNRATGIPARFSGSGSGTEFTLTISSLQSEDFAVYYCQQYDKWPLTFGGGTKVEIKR , please.
Reply | 2.2
